- Assay notes: Primary qHTS to identify inhibitors of SARS-CoV-2 cell entry (AID 1645846); note: nearly all actives have a fitted effect of over 45% in size
- Condition details: SARS-CoV-2 pseudovirus cell entry assay, luminescence; at 57.1 µM (top of the series) unless noted
Inconclusive results are not listed.
Quantity name: activity change, negative = inhibition (%)
Output spec: scalar in %, unitless text.

Name the recorded activity change, negative = inhibition of the compound listed here: CCOc1ccccc1OCCN[C@H](C)Cc1ccc(OC)c(S(N)(=O)=O)c1
-21.5

Complete the entry with activity change, negative = inhibition for C[C@@H](O)[C@H]1C(=O)N2C(C(=O)O)=C(S[C@@H]3CN[C@H](C(=O)N(C)C)C3)[C@H](C)[C@H]12
-22.9

Tell me activity change, negative = inhibition reported for Cn1cnc2c(F)c(Nc3ccc(Br)cc3Cl)c(C(=O)NOCCO)cc21
-32.9

Find the measured activity change, negative = inhibition of CCCCN1C[C@H](O)[C@@H](O)[C@H](O)[C@H]1CO and report it.
-1.04

Given the compound C[C@@H](O)[C@H]1C(=O)N2C(C(=O)O)=C(S[C@@H]3CN[C@H](CNS(N)(=O)=O)C3)[C@H](C)[C@H]12 , write its reported activity change, negative = inhibition.
-25.7

Query activity change, negative = inhibition for COC(c1ccccc1)(c1ccccc1)[C@H](Oc1nc(C)cc(C)n1)C(=O)O
-34.8

* * *

- Assay notes: Quantitative High-Throughput drug screen in 47 multiple myeloma cell lines against the NCATS MIPE library collection: OCIMY5_PLB cell viability assay (AID 1918988); note: nearly all actives have a fitted effect of over 65% in size
- Condition details: OCI-MY5 myeloma viability, ATP luminescence, 48 h; series mostly up to 45.8 µM
Records with an inconclusive call do not appear. The source made the active and inactive calls. Calls come from the whole dose curve; as a rule, active = well fitted cell-killing curve with a large enough effect; inconclusive = small, poorly fitted or top-dose-only effect, or effect the other way; inactive = no such curve, though single readings can be large or run the other way.
Respond only with the outcome that fits, drawn from active, inactive

Please indicate how the test categorized CCCC(C)(COC(N)=O)COC(=O)NC(C)C (stereo not given) .
inactive

Recorded call for C=C(C)[C@H]1Cc2c(ccc3c2O[C@@H]2COc4cc(OC)c(OC)cc4[C@@H]2C3=O)O1 ?
active

Fill in: this test's call for CC(O)(CS(=O)(=O)c1ccc(F)cc1)C(=O)Nc1ccc(C#N)c(C(F)(F)F)c1 (stereo not given) is ___
active

// return assay outcome for Cc1cccc(C)c1NC(=O)CN1CCCC1=O
inactive

Field: outcome | Entry: N[C@@H](Cc1ccc(N(CCCl)CCCl)cc1)C(=O)O
active

Please share the test call associated with CNC(=O)N1N=C(c2ccc(N)cc2)c2cc3c(cc2CC1C)OCO3 (stereo not given) .
active

What call does the record list for COC[C@H]1OC(=O)c2coc3c2[C@@]1(C)C1=C(C3=O)C2CCC(=O)[C@@]2(C)C[C@H]1OC(C)=O (stereo not given in full) ?
active

Give the logged outcome of this assay for the following compound: Cc1cc(SCc2sc(-c3ccc(C(F)(F)F)c(F)c3)nc2C)ccc1OCC(=O)O
active

// param item: CN(C)CCc1ccc(O)cc1 ; yields the recorded call
inactive

Record lookup: outcome of this test for CC1=C2C[C@@H]3[C@@H](CC=C4C[C@@H](O)CC[C@@]43C)[C@@H]2CC[C@]12O[C@H]1C[C@H](C)CN[C@H]1[C@H]2C ?
active

What did the test return for COC[C@@H](NC(C)=O)C(=O)NCc1ccccc1 ?
inactive

Kindly provide the recorded test outcome for the following compound: C[C@@H]1[C@@H](CC(C[C@H]2O[C@@H]3O[C@]4(C)CC[C@@H]5[C@H](C)CC[C@@H]([C@H]2C)[C@@]35OO4)C[S+](=O)([O-])c2ccc(COC(=O)N(C)C)cc2)O[C@@H]2O[C@]3(C)CC[C@H]4[C@H](C)CC[C@@H]1[C@@]24OO3 (stereo not given in full)
active

How was C[C@@H]1[C@@H](C(=O)C[C@H]2O[C@@H]3O[C@]4(C)CC[C@@H]5[C@H](C)CC[C@@H]([C@H]2C)[C@@]35OO4)O[C@@H]2O[C@]3(C)CC[C@H]4[C@H](C)CC[C@@H]1[C@@]24OO3 classified in this test?
active

Query: recorded result category for Cn1cc(C2=C(c3cn(C4CCN(Cc5ccccn5)CC4)c4ccccc34)C(=O)NC2=O)c2ccccc21 in this test
active

Call for entry O=P1(NCCCl)OCCCN1CCCl (stereo not given) :
active

* * *

- Assay notes: qHTS for Inhibitors of the Functional Ribonucleoprotein Complex (vRNP) of Lymphocytic Choriomeningitis Arenaviruses (LCMV): Viability assay - alamar blue signal for LCMV Primary Screen (AID 1347085); note: nearly all actives have a fitted effect of over 80% in size; note: potency is the fitted concentration of half-maximal effect
- Condition details: alamar blue viability counter-screen, LCMV vRNP screen cells; series mostly up to 57.5 µM
Records with an inconclusive call do not appear. Activity calls are given as the source filed them. Calls come from the whole dose curve; tested in HEK293 reporter line.
Quantity name: Potency

Example entries begin here.
[[record]]
compound = "COC(=O)CCc1ccc(OCC(O)CNC(C)C)cc1 (stereo unspecified)"
measurement = "inactive"

[[record]]
compound = "C=C(C)[C@H]1Cc2c(ccc3c2O[C@@H]2COc4cc(OC)c(OC)cc4[C@@H]2C3=O)O1"
measurement = "3.85 µM (active)"

[[record]]
compound = "CC(=O)N[C@@H](CS)C(=O)O"
measurement = "inactive"

[[record]]
compound = "C#CCOC(C(=O)OCCN(C)C)(c1ccccc1)c1ccccc1"
measurement = "inactive"

[[record]]
compound = "COc1cc(C(=O)NCc2ccc(OCCN(C)C)cc2)cc(OC)c1OC"
measurement = "inactive"


For the next question, use this compound.
Tell me measured Potency for CC(C)NCC(O)c1ccccc1Cl (stereo unspecified) please.
inactive

* * *

- System: 3D7
- Assay notes: qHTS profiling for inhibitors of Plasmodium falciparum proliferation (AID 504749); note: nearly all actives have a fitted effect of over 60% in size
- Condition details: P. falciparum in erythrocytes, SYBR Green DNA, 72 h; series mostly up to 28.7 µM
Results filed as inconclusive are left out. Calls of active or inactive are those of the source. Calls come from the whole dose curve; as a rule, active = well fitted inhibition curve with a large enough effect; inconclusive = small, poorly fitted or top-dose-only effect; inactive = flat fitted curve, though single readings scatter.
I would appreciate it if you answered using one of these outcomes: active, inactive

For CN1CCN(C(=O)O[C@H]2c3nccnc3C(=O)N2c2ccc(Cl)cn2)CC1 , what call appears in the results of this test?
inactive

Hi team, can someone confirm the assay call for Nc1ccncc1 ?
inactive

Test call for this molecule, please: Clc1ccc(COC(Cn2ccnc2)c2ccc(Cl)cc2Cl)cc1 (centres undefined)
active

# lookup: test call for c1ccc2c(c1)Nc1ccccc1S2
active

Please let me know the test result on file for N#CC(C#N)=Cc1ccc(O)c(O)c1 .
inactive

Returns: the outcome recorded for Oc1cc(Cl)ccc1Oc1ccc(Cl)cc1Cl in this assay.
active

Just curious, what result did C=C(C)[C@H]1Cc2c(ccc3c2O[C@@H]2COc4cc(OC)c(OC)cc4[C@@H]2C3=O)O1 get here?
inactive

Recorded call for O=C1NCN(c2ccccc2)C12CCN(CC1COc3ccccc3O1)CC2 (centres undefined) ?
inactive

In this assay, the call recorded for NN=C(N)N was what?
inactive

Which result was noted for this molecule in the test: O=c1[nH]c2ccccc2n1C1CCN(CCCC(c2ccc(F)cc2)c2ccc(F)cc2)CC1
active

Per the assay record, what outcome was assigned to CCCC1CCCCN1 (centres undefined) ?
inactive

Outcome? CN1C(=S)CN=C(c2ccccc2)c2cc(Cl)ccc21
inactive

Returns: the outcome recorded for NP(N)(=O)NC(=O)c1ccc(F)cc1 in this assay.
inactive

I'd appreciate the recorded outcome for CC(=O)Nc1cc([As](=O)(O)O)ccc1O from this test.
inactive

Short answer needed: outcome of this test for CCC(C(N)=O)N1CCCC1=O (centres undefined) ?
inactive

I would be grateful if you could indicate the recorded call for CC[N+]1(C)CCCC(OC(=O)C(O)(c2ccccc2)c2ccccc2)C1 (centres undefined) .
inactive

Call for entry Oc1cccc2cccnc12 :
inactive

Call for entry CC(C)CC(N(C)C)C1(c2ccc(Cl)cc2)CCC1 (centres undefined) :
inactive

Which outcome did this test record for the molecule CC(C)=CC1C(C(=O)OCc2cccc(Oc3ccccc3)c2)C1(C)C (centres undefined) ?
inactive

* * *

- Assay notes: qHTS of pediatric cancer cell lines to identify multiple opportunities for drug repurposing: Primary screen for MG 63 (6-TG R) cells (AID 1347105); note: nearly all actives have a fitted effect of over 50% in size
- Condition details: MG 63 (6-TG R) viability, CellTiter-Glo, 48 h; series mostly up to 46 µM
Results filed as inconclusive are left out. Calls of active or inactive are those of the source. The call rests on the fitted dose curve; in most records, active means well fitted cell-killing curve with a large enough effect; inconclusive means small, poorly fitted or top-dose-only effect; inactive means no such curve, though single readings can be large or run the other way.
Please state which outcome applies, choosing from active, inactive

Write down the call the test reported for this compound. Item: Cc1ccc2c(c1)C1CN(C)CCC1N2 (stereo unspecified)
inactive

Identify the outcome logged in this assay for the compound shown: C[C@]12C/C(=C/O)C(=O)C[C@@H]1CC[C@@H]1[C@@H]2CC[C@@]2(C)[C@H]1CC[C@]2(C)O
inactive

Which result was noted for this compound in the test: CC[N+]1(C)CCCC(OC(=O)C(O)(c2ccccc2)c2ccccc2)C1 (stereo unspecified)
inactive

Would you mind telling me which call this test gave COC[C@@H](NC(C)=O)C(=O)NCc1ccccc1 ?
inactive

GET /call?item= Nc1ccncc1 returns the recorded outcome of this test.
inactive

Per the assay record, what outcome was assigned to CCCN1CCC[C@@H]2Cc3nc(N)ncc3C[C@H]21 ?
inactive

// return assay outcome for CC(CCc1ccccc1)NC(C)C(O)c1ccc(O)cc1 (stereo unspecified)
inactive

Entry c1ccc(C2CC2)c(OCC2=NCCN2)c1 : call = ?
inactive

For O=c1oc2ccccc2c(O)c1C(CC(O)c1ccc(-c2ccc(Br)cc2)cc1)c1ccccc1 (stereo unspecified) , what call appears in the results of this test?
inactive

Tell me the recorded outcome of this test for CN(C)CCc1ccc(O)cc1 .
inactive

Please indicate how the test categorized CC1OC(C)OC(C)O1 (stereo unspecified) .
inactive

How was C=CCN1CC[C@]23c4c5ccc(O)c4O[C@H]2C(=O)CC[C@@]3(O)[C@H]1C5 classified in this test?
inactive

// return assay outcome for CCN(C(C)=O)c1cccc(-c2ccnc3c(C#N)cnn23)c1
inactive

Which result was noted for this compound in the test: CCN(CC)C(=O)N[C@@H]1C=C2c3cccc4[nH]cc(c34)C[C@@H]2N(C)C1
inactive

Fill in: this test's call for CC(O)(CS(=O)(=O)c1ccc(F)cc1)C(=O)Nc1ccc(C#N)c(C(F)(F)F)c1 (stereo unspecified) is ___
active

Kindly provide the recorded test outcome for the following compound: Clc1cccc(N2CCNCC2)c1
inactive

Provenance of the data: PubChem BioAssay (NCATS)
